# study_system: CDK2 (Homo sapiens, UniProt P24941)
# Construct: host or cells: HEK293
# procedure_details: CDK2 HIBIT PQ (protein quantification), degradation
# Assay type: cell-based
# test_context: PQ = Protein Quantification
metric_name: DC50 (nM)

Completed entries (count: 2):
{"compound": "CC(C)Oc1c(-c2cn[nH]c2)ncn2nc(Nc3ccc(S(=O)(=O)c4cccc(CN5CC6CC5CN6c5ccc6c(N7CCC(=O)NC7=O)nn(C)c6c5)c4)cc3F)nc12 (centres unmarked) [Compound 48]", "study_system": "CDK2 (Homo sapiens, UniProt P24941)", "scale_unit": "nM", "assay_result": 3.1}
{"compound": "CC(C)Oc1c(-c2cn[nH]c2)ncn2nc(Nc3ccc(S(=O)(=O)N4CCC[C@H](CN5CC[C@@H](c6ccc7c(N8CCC(=O)NC8=O)nn(C)c7c6)CC5(C)C)C4)cc3F)nc12 (single isomer, unassigned) [Compound 102]", "study_system": "CDK2 (Homo sapiens, UniProt P24941)", "scale_unit": "nM", "assay_result": 0.5}

P: CC(C)Oc1c(-c2cn[nH]c2)ncn2nc(NC3CCN(S(=O)(=O)c4cccc(CN5CCN(c6cc7c(cc6F)C(=O)N(C6CCC(=O)NC6=O)C7)CC5)c4)CC3)nc12 (racemic) [Compound 3]
Q: CC(C)Oc1c(-c2cn[nH]c2)ncn2nc(Nc3ccc(S(=O)(=O)c4cccc(N5CCCC6C5CN6c5ccc6c(c5)CN(C5CCC(=O)NC5=O)C6=O)c4)cc3F)nc12 (centres unmarked) [Compound 35]
R: CC(C)Oc1c(-c2cn[nH]c2)ncn2nc(Nc3ccc(S(=O)(=O)c4cccc(CN5CCC(c6cccc7c6n(C)c(=O)n7C6CCC(=O)NC6=O)CC5)c4)cc3F)nc12 (racemic) [Compound 13]
Let's sort these by DC50, smallest first. Go ahead? Form entry: ranked labels (order as requested).
R, P, Q
(R: 0.42 nM, P: 3.12 nM, Q: 6.5 nM)

---

# study_system: CDK2 (Homo sapiens)
# Construct: host or cells: HEK293
# procedure_details: CDK2 HIBIT PQ (protein quantification), degradation
# Type: cell-based
# test_context: PQ = Protein Quantification
metric_name: DC50 (nM)

{"compound": "CC(C)Oc1c(-c2cn[nH]c2)ncn2nc(Nc3ccc(S(=O)(=O)N4CCCC(CN5CCN(c6ccc7c(N8CCC(=O)NC8=O)nn(C)c7c6)C6CC65)C4)cc3F)nc12 (centres unmarked) [Compound 88]", "study_system": "CDK2 (Homo sapiens)", "scale_unit": "nM", "DC50": 6.5}

I: CC(C)Oc1c(-c2cn[nH]c2)ncn2nc(Nc3ccc(S(=O)(=O)c4cccc(C(C)N5CCN(c6ccc7c(N8CCC(=O)NC8=O)nn(C)c7c6)C6CC65)c4)cc3F)nc12 (centres unmarked) [Compound 83]
II: CC(C)Oc1c(-c2cn[nH]c2)ncn2nc(Nc3ccc(S(=O)(=O)c4cccc(CN5CCC(c6ccc7c(c6)n(C)c(=O)n7C6CCC(=O)NC6=O)CC5)c4)cc3F)nc12 (racemic) [Compound 25]
III: CC(C)Oc1c(-c2cn[nH]c2)ncn2nc(NC3CCN(S(=O)(=O)c4cccc(CN5CCC(c6ccc7c(N8CCC(=O)NC8=O)nn(C)c7c6)CC5)c4)CC3)nc12 [Compound 1]
IV: Cc1cc(Nc2nc3c(OC(C)C)c(-c4cn[nH]c4)ncn3n2)c(F)cc1S(=O)(=O)N(C)CCCN1CCC(c2ccc3c(c2)n(C)c(=O)n3C2CCC(=O)NC2=O)CC1 (racemic) [Compound 59]
// sort entries: DC50, high to low Form entry: ranked labels (order as requested).
I, III, II, IV
(I: 7.6 nM, III: 1.62 nM, II: 0.2 nM, IV: 0.1 nM)
